system: KM12 colon; test: NCI-60 one-dose screen, 48 h; conditions: 10 µM unless noted
This is part of a sample that, as a whole, favours compounds with a hit. Of some 83,000 tested, about 20% had one in any assay. The source made the active and inactive calls. The calls were made as follows: active = growth percent below 10; inactive = the rest.
Your reply should match one of these outcome classes. class 1 for active, class 0 for inactive

Which result was noted for this compound in the test: COc1ccc(N(Cc2cc(OC)c(OC)c(OC)c2)C2OC(=O)c3ccccc32)cc1 (stereo unspecified)
class 0

Which result was noted for this compound in the test: N=c1c2ccccc2nc2n1CCCCC2
class 0

Which result was noted for this compound in the test: Nc1c(C(=O)Nc2ccccc2Cl)sc2nc3c(cc12)CCCCCC3
class 0

Which result was noted for this compound in the test: CC1(C)CC(C(=O)OCCCCCCCCCCC[P+](c2ccccc2)(c2ccccc2)c2ccccc2)C(C)(C)N1O (stereo unspecified)
class 1

Which result was noted for this compound in the test: COC(=O)[C@H](C(C)C)n1c(=O)c2cc(OC)c(OC)cc2c2cnc3[nH]ccc3c21
class 0

Which result was noted for this compound in the test: CC/C=C\C[C@H](O)C/C=C1/C(=O)C=C[C@@H]1C/C=C\CCCC(N)=O
class 1

Which result was noted for this compound in the test: c1ccc(Sc2ncnc3ccccc23)cc1
class 0

Which result was noted for this compound in the test: Nc1ccc(N2CCOCC2)cc1
class 0

Which result was noted for this compound in the test: Cc1sc2nc3[nH]/c(=C\c4ccc(Cl)cc4)c(=O)n3c(=O)c2c1C
class 0

Which result was noted for this compound in the test: CCOC(=O)C(=Cc1ccccc1F)C(=O)OCC
class 0

Which result was noted for this compound in the test: CCCCCC(=O)Oc1ccc(/C(=C(\C)c2ccccc2)c2ccc(OCCN(CC)CC)cc2)cc1
class 0

Which result was noted for this compound in the test: CC(C)(C)n1cc(-c2ccnc(NCCNS(=O)(=O)c3ccccc3)c2)c(-c2cccc(O)c2)n1
class 0

Which result was noted for this compound in the test: ClC1=C2NC=NC2n2c(nnc2-c2ccc(Cl)cc2)N1 (stereo unspecified)
class 0

Which result was noted for this compound in the test: Cc1ccc(/C=C2\Oc3cc(OCC(=O)c4ccc(Cl)cc4)ccc3C2=O)cc1
class 0

Which result was noted for this compound in the test: C=C(CN1CCN(c2cccc(C(F)(F)F)n2)CC1)c1ccc(C(=O)Nc2ccccc2N)cc1
class 1

Which result was noted for this compound in the test: C=C1CCC2C3(C)COC(c4cccc(Cl)c4)OC3CCC2(C)C1/C=C/C1=CCOC1=O (stereo unspecified)
class 0

Which result was noted for this compound in the test: COc1cc(NC(N)=NCC(C)(C)COc2ccc(C(F)(F)F)cc2)cnc1C#N
class 0

Which result was noted for this compound in the test: CN[C@@]12CC3(C=CC(=O)C=C3)O[C@]1(Cc1ccc(OC)cc1)N(C)C(=O)N2
class 0

Which result was noted for this compound in the test: COc1ccc(/C=c2/c(=O)[nH]c3nc4sc(C)c(C)c4c(=O)n23)cc1
class 0

Which result was noted for this compound in the test: COc1cc(NCCCCN=C(N)NC(N)=NC(C)C)c2ncccc2c1
class 0

Which result was noted for this compound in the test: c1ccc(CSc2ncnc3nc[nH]c23)nc1
class 0
